Here the recorded viability, T/C is given for each entry.
Test system: 743489-274-T-PDC complex spheroid growth
Assay: Anticancer human tumor 743489-274-T-PDC patient-derived renal cell carcinoma cell line growth inhibition [AhR]
Details: second compound 0.1 µM; first compound 0.0316 µM; active compounds read low

[[record]]
compound = "NS(=O)(=O)OCC1CC(n2ccc3c(NC4CCc5ccccc54)ncnc32)CC1O (stereo not drawn) + Cc1cncc(-c2nc(NCCc3c[nH]c4ccccc34)c3ncn(C(C)C)c3n2)c1"
test_result = "105%"

[[record]]
compound = "Cn1ncnc1C1c2n[nH]c(=O)c3cc(F)cc(c23)NC1c1ccc(F)cc1 (stereo not drawn) + CC(CO)NC(=O)c1cc(-c2ccc(Cl)cc2)nn(-c2cnn(C)c2)c1=O"
test_result = "89.6%"


Please turn your attention to the following entry.
Req: For the record Nc1ccn(C2OC(CO)C(O)C2(F)F)c(=O)n1 (stereo not drawn) + Cc1ccccc1N=Nc1ccc(NC(=O)c2ccnn2C)c(C)c1 , what value of viability, T/C is listed for 743489-274-T-PDC complex spheroid growth?
Resp: 65%

----------
Test system: 743489-274-T-PDC complex spheroid growth
Assay: Anticancer human tumor 743489-274-T-PDC cell line growth inhibition [AhR];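 also: spheroids exposed to agents for 7 days before readout; 100% = DMSO vehicle control wells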
Conditions: second compound 10 µM; first compound 0.316 µM; active compounds read low
Recorded viability, T/C, one value per entry.
State just the number; it will be interpreted in %.

[[record]]
molecule = "CC1(C)CCC(CN2CCN(c3ccc(C(=O)NS(=O)(=O)c4ccc(NCC5CCOCC5)c([N+](=O)[O-])c4)c(Oc4cnc5[nH]ccc5c4)c3)CC2)=C(c2ccc(Cl)cc2)C1 + CC(CO)NC(=O)c1cc(-c2ccc(Cl)cc2)nn(-c2cnn(C)c2)c1=O"
readout = "viability, T/C"
test_result = 93.1

[[record]]
molecule = "Nc1ccn(C2OC(CO)C(O)C2(F)F)c(=O)n1 (stereo not drawn) + Cc1ccccc1N=Nc1ccc(NC(=O)c2ccnn2C)c(C)c1"
readout = "viability, T/C"
test_result = 51.4


Req: // viability, T/C lookup, key: NS(=O)(=O)OCC1CC(n2ccc3c(NC4CCc5ccccc54)ncnc32)CC1O (stereo not drawn) + CC(CO)NC(=O)c1cc(-c2ccc(Cl)cc2)nn(-c2cnn(C)c2)c1=O
Resp: 84.8

Req: Quick one: viability, T/C of COc1cc(C2c3cc4c(cc3C(OC3OC5COC(C)OC5C(O)C3O)C3COC(=O)C23)OCO4)cc(OC)c1O (stereo not drawn) + Cc1ccccc1N=Nc1ccc(NC(=O)c2ccnn2C)c(C)c1 ?
Resp: 95.1

Req: I'd like to know its viability, T/C. The molecule in question is COc1cc(C2c3cc4c(cc3C(OC3OC5COC(C)OC5C(O)C3O)C3COC(=O)C23)OCO4)cc(OC)c1O (stereo not drawn) + CC(CO)NC(=O)c1cc(-c2ccc(Cl)cc2)nn(-c2cnn(C)c2)c1=O
Resp: 103

Req: Which viability, T/C is listed for CC1(C)CCC(CN2CCN(c3ccc(C(=O)NS(=O)(=O)c4ccc(NCC5CCOCC5)c([N+](=O)[O-])c4)c(Oc4cnc5[nH]ccc5c4)c3)CC2)=C(c2ccc(Cl)cc2)C1 + Cc1ccccc1N=Nc1ccc(NC(=O)c2ccnn2C)c(C)c1 ?
Resp: 90.1

Req: Entry COc1cc(Nc2ncc3c(n2)-c2ccc(Cl)cc2C(c2c(F)cccc2OC)=NC3)ccc1C(=O)O + Cc1cncc(-c2nc(NCCc3c[nH]c4ccccc34)c3ncn(C(C)C)c3n2)c1 has what viability, T/C?
Resp: 101

Req: Entry Nc1ccccc1NC(=O)c1ccc(CNC(=O)OCc2cccnc2)cc1 + Cc1ccccc1N=Nc1ccc(NC(=O)c2ccnn2C)c(C)c1 has what viability, T/C?
Resp: 88.4

These data points were gathered from PubChem BioAssay AID1919002.
